- RUN_DESCRIPTION: protein stability index of a GFP-peptide fusion (GPS, HEK-293T) (PSI 1-6); higher = more stable;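 note: 24-mer peptide tiles fused after GFP, lentivirally expressed, FACS-sorted into six equal bins by GFP/DsRed ratio, decoded by Illumina sequencing, PSI is the read-weighted mean bin number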
- MEASUREMENT_SETUP: treatment: DMSO; c terminus: a fixed tail appended
Note to self: values exactly at 3 are 1. So protein stability index at or above 3 is 1, below is -1.

Record SNRHGHTCLMISCYKGHKEIAQYL [FEM1C] ; criterion: protein stability index no lower than 3. Met? -1

Subsequent entry: KDKEYAEIIRKQVSATKAEAEKDG [UBE2R2] 1

Item: IQPSSEGLGPTSEPFPSSDDSPRS [SPAG8] 1

Ok, now GTGAVVTSLFMTPLDVVKVRLQSQ [SLC25A39] -1

Same again, this time with KAFLTKTMLIVHHRTHTGERPYGC [ZNF649] -1

Entry to check: LYVLKGGYKEFFMKCQSYCEPPSY [CDC25A] -1

Try SMLVAGNDRVQTIITQLEDSRRVT [TRIM63] next. 1

How about this sequence: ESFRDLQLRLLQAPLQADLTEQVW [SCARA5] -1

Do the same for VVKKIALREIRMLKQLKHPNLVNL [CDKL4] please -1

Repeat with GLEEADAEVSVISEADPQALLQAM [FBF1] 1

What about this sequence? ALQEYSSISEKLSSTNFAMKRDVQ [C8orf76] 1

Another: THSSVVLQGFDQLRLEGLLCDVTL [KLHL13] -1

Please do the same for KAQALRDNSTMGYMMAKKHLEINP [HSP90AB1] as well. 1

Please give the result for MVLLTMIARVADGLPLAASMQEDE [SEC22B] too. 1

Try this sequence next: GSKARAEGRGPVTPLHLDLTQLHR [PLEKHN1] 1

Moving on to DAFWWAVVTMTTVGYGDMHPVTIG [KCNA3] 1

LNGENSDIKICALGEEWSLHKIYL [GMCL1] , same question. -1

Note, next up: DGSTYKIELEGISVMVMREILDYI [GAN] -1

Also TYTYTSRPRALPCQRSRYRDSLTQ [RSPH3] ? 1

Request: EHLPVKPDTMEKLRTHIDAIILAL [DENND6A] -1

Same question for FESLPENASHKLEVRLVPVSFEDP [ATE1] please. 1

Can you check RIRIDDEPANLDILDTAGQAEFTA [RIT1] next? 1

// next record SEEKGHPQEESEESNVSMASLGEK [CHGB] 1

Same again, this time with RDSLTQPDEEPMHYGNIMYDRRVI [RSPH3] 1

Then ESTTKESSEASQLEDAAGGDSASE [FBXO34] ? 1

Check VADRWYSEIKNYNFQQPGFTSGTG [GLIPR2] too. -1

Try this sequence too: ENVLAALEGLNLSILKAMGKTKKD [NECAB1] 1

For MLSLKKYLTEGLLQFTILLSLIGV [NFE2L1] then? 1

Can you handle YTPDLPRADVDHAIEKAFQLWSNV [MMP1] next? -1

Record: AKVKPFDPKITCKQECLITTFQDV [TPH1] -1

Consider next the sequence IQNAHKNSTGSGRGKKLMVLTEPI [TPRG1] in the same way. 1

// next record MPCLLMELRRDSSESQLASTESDK [C18orf25] 1

Same question, SLYILRGSARYDFSHEILRDEESF [ALKBH7] this time -1

Okay, and PPETVQNWIELLSGETWNPLKLHY [GOLPH3] ? -1

Cool, now LLARPGTGEHREFKLDKKYQRPQD [FBF1] 1

// next record AMFTGGMKEQDLMCIKLHGVSKVG [KLHL13] -1

// next record IRVRGQRASRLQAPVLVAAPHSTF [LPCAT4] -1

Would you kindly repeat that for QSNLEPLSPMTASSFLSFAELFSY [FEM1A] ? -1

Now this one: SRSAAQDLDRMGVMTLPSDLRKHR [PPFIA4] 1

Follow-up item: EDFLLKKPIVPTDGKRVIVVFHCE [CDC25A] -1

Continue with ETVVNRIAAGEVIQRPANAIKEMI [MLH1] 1

// repeat for IKPAPARAPACSPEAAAAQLRATA [FCHO1] and report 1

Please do the same for VVAYLALAALSATISFRIYKSVLQ [RTN1] as well. -1
